Values from patent EP1516629B1

Listed next: entries and their corresponding fold improvement in binding over HuIgG1.
Biological target: T1, rhesus CD11a (rhesus) (UniProt H9Z8N3)
T1 sequence: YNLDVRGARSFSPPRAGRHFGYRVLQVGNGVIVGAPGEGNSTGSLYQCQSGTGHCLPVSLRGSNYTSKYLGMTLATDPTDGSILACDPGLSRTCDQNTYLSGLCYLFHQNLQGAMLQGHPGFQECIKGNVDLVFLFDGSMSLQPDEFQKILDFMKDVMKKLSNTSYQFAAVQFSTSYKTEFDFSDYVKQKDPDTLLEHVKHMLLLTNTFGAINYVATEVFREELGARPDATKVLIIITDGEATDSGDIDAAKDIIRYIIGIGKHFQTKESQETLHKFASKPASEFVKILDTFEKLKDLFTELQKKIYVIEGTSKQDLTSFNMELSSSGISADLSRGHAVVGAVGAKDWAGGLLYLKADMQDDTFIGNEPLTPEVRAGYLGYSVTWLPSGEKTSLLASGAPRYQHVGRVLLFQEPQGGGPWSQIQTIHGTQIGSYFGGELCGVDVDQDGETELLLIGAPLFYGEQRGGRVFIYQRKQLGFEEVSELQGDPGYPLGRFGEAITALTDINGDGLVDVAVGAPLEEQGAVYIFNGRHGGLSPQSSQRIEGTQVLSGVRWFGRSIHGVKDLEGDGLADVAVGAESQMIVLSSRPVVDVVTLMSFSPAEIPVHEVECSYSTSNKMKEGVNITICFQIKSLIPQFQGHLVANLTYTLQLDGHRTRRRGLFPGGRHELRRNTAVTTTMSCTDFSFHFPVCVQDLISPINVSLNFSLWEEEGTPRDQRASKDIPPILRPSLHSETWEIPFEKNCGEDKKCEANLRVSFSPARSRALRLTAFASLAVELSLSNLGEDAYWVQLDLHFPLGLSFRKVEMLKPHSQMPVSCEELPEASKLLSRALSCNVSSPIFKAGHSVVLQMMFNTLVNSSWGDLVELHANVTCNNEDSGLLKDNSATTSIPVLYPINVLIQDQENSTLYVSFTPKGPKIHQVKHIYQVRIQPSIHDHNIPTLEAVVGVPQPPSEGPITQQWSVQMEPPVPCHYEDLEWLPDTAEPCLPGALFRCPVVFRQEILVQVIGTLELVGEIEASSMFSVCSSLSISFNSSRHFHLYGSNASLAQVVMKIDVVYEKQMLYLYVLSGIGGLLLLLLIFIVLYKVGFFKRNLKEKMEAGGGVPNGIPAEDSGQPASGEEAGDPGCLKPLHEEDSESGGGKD
Test: binding to rhesus peripheral blood lymphocytes
endpoint-name: fold improvement in binding over HuIgG1 (fold)

>>> measured_number("AspH54Ala variant IgG1 (antibody, V domains shown) VH: EVQLVESGGGLVQPGGSLRLSCAASGYSFTGHWMNWVRQAPGKGLEWVGMIHPSASETRYNQKFKDRFTISVDKSKNTLYLQMNSLRAEDTAVYYCARGIYFYGTTYFDYWGQGTLVTVSS VL: DIQMTQSPSSLSASVGDRVTITCRASKTISKYLAWYQQKPGKAPKLLIYSGSTLQSGVPSRFSGSGSGTDFTLTISSLQPEDFATYYCQQHNEYPLTFGQGTKVEIK")
3
>>> measured_number("H2A1 variant IgG1 (antibody, V domains shown) VH: EVQLVESGGGLVQPGGSLRLSCAASGYSFTGHWMNWVRQAPGKGLEWVGMIAPADSETRYNQKFKDRFTISVDKSKNTLYLQMNSLRAEDTAVYYCARGIYFYGTTYFDYWGQGTLVTVSS VL: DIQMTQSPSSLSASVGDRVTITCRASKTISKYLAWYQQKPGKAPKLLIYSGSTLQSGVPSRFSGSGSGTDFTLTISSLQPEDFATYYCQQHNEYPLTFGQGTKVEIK")
77
>>> measured_number("GluH56Ala variant IgG1 (antibody, V domains shown) VH: EVQLVESGGGLVQPGGSLRLSCAASGYSFTGHWMNWVRQAPGKGLEWVGMIHPSDSATRYNQKFKDRFTISVDKSKNTLYLQMNSLRAEDTAVYYCARGIYFYGTTYFDYWGQGTLVTVSS VL: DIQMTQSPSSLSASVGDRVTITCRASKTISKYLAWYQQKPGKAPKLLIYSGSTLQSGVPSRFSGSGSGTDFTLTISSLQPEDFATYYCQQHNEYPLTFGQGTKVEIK")
3
>>> measured_number("AspH54Asn variant IgG1 (antibody, V domains shown) VH: EVQLVESGGGLVQPGGSLRLSCAASGYSFTGHWMNWVRQAPGKGLEWVGMIHPSNSETRYNQKFKDRFTISVDKSKNTLYLQMNSLRAEDTAVYYCARGIYFYGTTYFDYWGQGTLVTVSS VL: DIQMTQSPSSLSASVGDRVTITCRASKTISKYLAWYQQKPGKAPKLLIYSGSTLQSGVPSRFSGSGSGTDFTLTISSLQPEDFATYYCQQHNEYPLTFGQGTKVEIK")
10
